- System: BV-2
- Procedure Summary: Cytotoxicity against LPS-stimulated mouse BV-2 cells assessed as reduction in cell viability at 20 uM measured after 24 hrs by MTT assay relative to control
- Type: cell-based
- Protocol Conditions: bv-2, 24 h
Outcome: 1 for Activity of at least 90%; 0 for anything lower.

Check if Activity >= 90% (inclusive). Item: `C=C1C(=O)O[C@@H]2CC(CN3CCCCC3)=C([C@@H](C)CCCOC(C)=O)[C@@H](OC(C)=O)[C@H]12`
1

Subsequent entry: `CC(=O)OCCC[C@H](C)C1=C(C)C[C@H]2OC(=O)[C@]3(CC(c4ccccc4)=NO3)[C@H]2[C@@H]1OC(C)=O`
1

Subsequent entry: `CC(=O)OCCC[C@H](C)C1=C(C)C[C@H]2OC(=O)[C@]3(CC(c4ccccc4[N+](=O)[O-])=NO3)[C@H]2[C@@H]1OC(C)=O`
1

Subsequent entry: `CC(=O)OCCC[C@H](C)C1=C(C)C[C@H]2OC(=O)[C@]3(CC(c4ccc(N(C)C)cc4)=NO3)[C@H]2[C@@H]1OC(C)=O`
0

Subsequent entry: `C=C1C(=O)O[C@H]2[C@@H]1[C@H](OC(C)=O)C([C@@H](C)CCCOC(C)=O)=C(C)[C@H]2N=[N+]=[N-]`
1

* * *

Consider the following compounds; for each one, report its Activity.
- Tested on: BV-2
- Procedure Summary: Cytotoxicity against LPS-stimulated mouse BV-2 cells assessed as reduction in cell viability at 20 uM measured after 24 hrs by MTT assay relative to control
- Type: cell-based
- Protocol Conditions: bv-2, 24 h
Please reply with the bare figure in % and do not write the unit itself.

Give its Activity value. Item: `C=C1C(=O)O[C@@H]2CC(CN3CCOCC3)=C([C@@H](C)CCCOC(C)=O)[C@@H](OC(C)=O)[C@H]12`
91.3

Subsequent entry: `C=C1C(=O)O[C@H]2[C@@H]1[C@H](OC(C)=O)C([C@@H](C)CCCOC(C)=O)=C(C)[C@H]2N`
90.9

Subsequent entry: `CC(=O)OCCC[C@H](C)C1=C(C)C[C@H]2OC(=O)[C@]3(CC(c4c(F)c(F)c(F)c(F)c4F)=NO3)[C@H]2[C@@H]1OC(C)=O`
92.2

Subsequent entry: `C=C1C(=O)O[C@@H]2C[C@@]3(C)O[C@@]3([C@@H](C)CCCOC(C)=O)[C@@H](OC(C)=O)[C@H]12`
89.5

Subsequent entry: `C=C1C(=O)O[C@H]2[C@@H]1[C@H](OC(C)=O)C([C@@H](C)CCCOC(C)=O)=C(C)[C@@H]2c1ccccc1`
91.7

Subsequent entry: `CC(=O)OCCC[C@H](C)C1=C(C)C[C@H]2OC(=O)C(Cc3ccc(O)cc3)=C2[C@@H]1O`
90.1
